Numbers sourced from paper doi:10.1101/852095.

- systemUnderTest: recombinant NPM1 (Nucleophosmin), probe of the protein array (human, UniProt P06748 1-294)
- Sequence (P06748 whole entry): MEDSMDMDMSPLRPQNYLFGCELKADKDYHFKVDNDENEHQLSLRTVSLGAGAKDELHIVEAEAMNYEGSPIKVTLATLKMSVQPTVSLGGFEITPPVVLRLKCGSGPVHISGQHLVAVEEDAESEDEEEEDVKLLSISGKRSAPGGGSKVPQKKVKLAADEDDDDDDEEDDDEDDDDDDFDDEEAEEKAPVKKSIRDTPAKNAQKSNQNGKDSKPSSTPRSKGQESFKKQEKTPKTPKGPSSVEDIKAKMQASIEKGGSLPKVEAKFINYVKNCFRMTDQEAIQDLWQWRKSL
- experimentDescription: peptide or protein array

binder	binding result
MED11 (natural protein, human, UniProt Q9P086 1-117, looked up) MATYSLANERLRALEDIEREIGAILQNAGTVILELSKEKTNERLLDRQAAAFTASVQHVEAELSAQIRYLTQVATGQPHEGSSYSSRKDCQMALKRVDYARLKLSDVARTCEQMLEN	binds
